# Test system: HOP-62
# assay-overview: Antiproliferative activity against human HOP62 cell line
# Format: functional, cell-based
# study-conditions: hop-62

compound: COC(=O)C[C@H]1[C@]2(C)C3=C(C)[C@H](c4ccoc4)C[C@H]3O[C@@H]2[C@H](O)[C@@H]2[C@]1(C)C(=O)C=C[C@@]2(C)C(=O)NC(C)c1ccccc1 (some centres undefined)
IC50: Not Active

compound: COC(=O)C[C@H]1[C@]2(C)C3=C(C)[C@H](c4ccoc4)C[C@H]3O[C@@H]2[C@H](O)[C@@H]2[C@]1(C)C(=O)C=C[C@@]2(C)C(=O)N1CCOCC1
IC50: Not Active

compound: COC(=O)C[C@H]1[C@]2(C)C3=C(C)[C@H](c4ccoc4)C[C@H]3O[C@@H]2[C@H](O)[C@@H]2[C@]1(C)C(=O)C=C[C@@]2(C)C(=O)NCc1ccc(F)cc1
IC50: Not Active

compound: COC(=O)C[C@H]1[C@]2(C)C3=C(C)[C@H](c4ccoc4)C[C@H]3O[C@@H]2[C@H](O)[C@@H]2[C@]1(C)C(=O)C=C[C@@]2(C)C(=O)N1CCCCC1
IC50: Not Active
